Listed molecules paired with reported growth
Tested on: HOP-62 NSCLC
assayOverview: NCI-60 one-dose screen, 48 h (100 = growth as untreated, 0 = no growth, -100 = all killed)
setupConditions: 10 µM unless noted
The panel holds about 83,000 compounds, 20% with a hit somewhere; the sample as a whole holds those more often.
assayEndpoint: growth (%)

# molecule, assayEndpoint, unitsText, assayResult
records = [
    ("O=[P+](O)c1cccnc1", "growth", "%", 90.3),
    ("C[C@]12CCc3sc(Nc4ccc(O)cc4)nc3C1=CC[C@@H]1[C@@H]2CC[C@]2(C)C(=O)CC[C@@H]12", "growth", "%", 92.7),
    ("Nc1c(Cl)c(Cl)nc(C(=O)O)c1Cl", "growth", "%", 86.9),
    ("COc1ccc(O)c2c(=O)c3c(OC)cc4c(c3oc12)[C@@H]1C=CO[C@@H]1O4", "growth", "%", 36.6),
    ("CC1(C)S[C@H]2CC[C@H]3OC(=O)[C@@H]1N23", "growth", "%", 104),
    ("COc1ccc2c(c1)c(-c1nc(-c3cn(C)c4ncccc34)cs1)cn2CCCCN1CCOCC1", "growth", "%", 30.9),
    ("N#CCc1ccc(CC#N)cc1", "growth", "%", 88.4),
    ("COC12CC3C4=CCOC5CC(=O)N6c7ccccc7C1(CCN2C4)C6C53 (configuration not stated)", "growth", "%", 99.1),
    ("CO/N=C1\\CC[C@]2(C)[C@H]3CC[C@]4(C)C(=O)CC[C@H]4[C@@H]3C[C@@H]3SC(N)=N[C@@]32C1", "growth", "%", 112),
    ("Cn1cc(-c2csc(-c3cn(CCCCN4CCOCC4)c4ccc(F)cc34)n2)c2cccnc21", "growth", "%", 85.6),
    ("O=C(Cc1ccccc1)c1ccccc1", "growth", "%", 98.5),
    ("COc1cc(-c2ccc(N)c(OC)c2)ccc1N", "growth", "%", 95.5),
]
